# Test system: human serum proteins (HSA)
# TEST_DESCRIPTION: Apparent affinity to human serum proteins (Kd*) by EC50 shift analysis
# Type: in vitro ADME
# SETTINGS: nonlinear regression of EC50 shift with increasing human serum; 1:1 HSA binding assumed, 700 μM HSA for 100% serum; read-out: Serum Kd*
Where a SMILES comes first, the peptide text is derived from it. Bridges are numbered along the chain shown (N, C = ends). [ ]: non-standard residue; d: D form. S5 = C=CCCC[C@](C)(N)C(=O)O
TEST_READOUT: Kd

# MOLECULE, TEST_READOUT, READING
rows = [
    ("CC[C@H](C)[C@H](NC(=O)[C@H](CCCNC(=N)N)NC(=O)[C@H](CCCNC(=N)N)NC(=O)[C@H](CCCNC(=N)N)NC(=O)[C@H](CC(C)C)NC(=O)[C@H](C)NC(C)=O)C(=O)N[C@@]1(C)CCCC=CCCC[C@@](C)(C(=O)N[C@@H](Cc2c[nH]cn2)C(=O)N[C@@H](Cc2c[nH]cn2)C(=O)N[C@@H](CO)C(=O)N[C@H](C(N)=O)[C@@H](C)O)NC(=O)[C@H](C)NC(=O)[C@H](CS)NC(=O)[C@H](CC(C)C)NC1=O [Compound 19, Ac-ALRRRI$LCA$HHST-NH2] (Ac-ALRRRI[S5]LCA[S5]HHST-NH2; staple 7-11)", "Kd", "600 nM"),
]

* * *

# System: human serum proteins (HSA)
# TEST_DESCRIPTION: Apparent affinity to human serum proteins (Kd*) by EC50 shift analysis
# Type: in vitro ADME
# SETTINGS: human; estimated with [HSA] total set at 700 μM; read-out: Free Fraction est. in blood
Where a SMILES comes first, the peptide text is derived from it. Bridges are numbered along the chain shown (N, C = ends). [ ]: non-standard residue; d: D form. S5 = C=CCCC[C@](C)(N)C(=O)O

# MOLECULE, fraction unbound
rows = [
    ("CC[C@H](C)[C@H](NC(=O)[C@H](CCCNC(=N)N)NC(=O)[C@H](CCCNC(=N)N)NC(=O)[C@H](CCCNC(=N)N)NC(=O)[C@H](CC(C)C)NC(=O)[C@H](C)NC(C)=O)C(=O)N[C@@]1(C)CCCC=CCCC[C@@](C)(C(=O)N[C@@H](Cc2c[nH]cn2)C(=O)N[C@@H](Cc2c[nH]cn2)C(=O)N[C@@H](CO)C(=O)N[C@H](C(N)=O)[C@@H](C)O)NC(=O)[C@H](C)NC(=O)[C@H](CS)NC(=O)[C@H](CC(C)C)NC1=O [Compound 19, Ac-ALRRRI$LCA$HHST-NH2] (Ac-ALRRRI[S5]LCA[S5]HHST-NH2; staple 7-11)", 0.001),
]
